Target Entity: human full-length VWF (human, UniProt P04275 764-2813)
Measurement Protocol: SPR, Biacore T200, antibody captured on Protein A, full-length VWF as analyte, single-cycle kinetics

Binder	Kd (nM)
4-H3_H0_VL-par (antibody, human IgG1, kappa, V domains shown, also called 4-H3_H0 (hIgG1)) VH: QVQLVESGGGVVQPGRSLRLSCAASGFTFSSNAMNWVRQAPGKGLEWVAGIYGHDTSYYAAWAKGRFTISRDNSKNTLYLQMNSLRAEDTAVYYCARGFIYFDIWGQGTLVTVSS VL: AYDMTQTPPSLSASVGETVRIRCLASEDIASGISWYQQKPGKPPTLLIYGASNLESGVPPRFSGSGSGTDYTLTIGGVQAEDAATYYCLGGYSFSSNGLTFGAGTKVEIKT	0.0131
3-H9 (antibody, human IgG1, V domains shown, Rabbit-derived variable domains expressed as human IgG1; also called clone 3-H9; antibody 3-H9) VH: QSLEESGGRLVTPGTPLTLTCSVSGFSLSNYDMSWVRQAPGKGLEWIGSIHAIGITYYANWAEGRFTISKTSTTVDLKMTSLTTEDTATYFCARGLVDLNMWGPGTLVTVSS VL: AIKMTQTPSSVSVAVGGTVTINCQSSQSVYSNNLLSWYQQKPGQPPKLLIYDASTLESGVPSRFKGSGSGTQFTLTISGVQCEDAATYYCQGSYYSSGWYNTFGGGTEVVVE	0.0603
1-D5_H0_L1 (antibody, human IgG1, kappa, V domains shown, humanised, human IgG1 kappa) VH: QVQLVESGGGVVQPGRSLRLSCAASGFTFSNYIMGWVRQAPGKGLEWVAIISTGGSTYYASWAKGRFTISRDNSKNTLYLQMNSLRAEDTAVYYCARGGSSAGAGFNIWGQGTLVTVSS VL: DIQMTQSPSSLSASVGDRVTITCQASQSINSGLAWYQQKPGKAPKRLIYKASTLASGVPSRFSGSGSGTDFTLTISSLQPEDFATYYCQSYHYISANGATFGGGTKVEIKT	0.00177
